target desc: hPPARδ (Homo sapiens, UniProt Q03181)
Construct: corresponding to the DEF domains (structural elements of the promoter of the PPARs: D=hinge, EF=ligand fixation domain and AF2 fixation site); expressed in transfected cells; host or cells: COS-7 (monkey kidney fibroblasts)
Sequence (Q03181 211-439 limits assumed): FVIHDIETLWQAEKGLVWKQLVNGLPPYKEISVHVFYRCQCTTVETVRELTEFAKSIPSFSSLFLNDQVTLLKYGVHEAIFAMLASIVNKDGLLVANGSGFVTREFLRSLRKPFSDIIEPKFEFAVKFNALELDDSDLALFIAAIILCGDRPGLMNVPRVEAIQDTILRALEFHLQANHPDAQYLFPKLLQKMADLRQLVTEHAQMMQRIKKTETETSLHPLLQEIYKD
experiment description: Gal4-hPPARδ chimera transactivation (luciferase) in COS-7 cells
Type: cell-based
condition description: relative to maximum activation obtained with GW501516; COS-7 cells, Gal4-hPPARδ, 24 hours; read-out: PPARδ TOP % (maximum activation)
observable: Emax (%)

Some solved cases for reference:
O=C(O)COc1ccc(OCc2ccc(-c3ccccc3)nc2Sc2ccccc2)cc1 [Cpd 25]; 71
O=C(O)COc1ccc(OCc2ccc(-c3ccccc3)nc2N2CCCCC2)cc1 [Cpd 20]; 87.7
COc1nc(-c2ccccc2)ccc1CNc1ccc(OC(C)C(=O)O)cc1 (stereo not shown) [Cpd 5]; 71
COc1nc(-c2ccccc2)ccc1CNc1ccc(SCC(=O)O)cc1 [Cpd 16]; 85.2
CC(C)Oc1nc(-c2ccccc2)ccc1CNc1ccc(CCC(=O)O)cc1 [Cpd 54]; 92.1

I = COc1nc(-c2ccccc2)ccc1COc1ccc(OC(C)C(=O)O)cc1 (stereo not shown) [Cpd 3]
II = CC(C)(C)Oc1nc(-c2ccccc2)ccc1CNc1ccc(OCC(=O)O)cc1 [Cpd 8]
III = COc1nc(-c2ccccc2)ccc1CNc1cc(C)c(OCC(=O)O)c(C)c1 [Cpd 35]
With regard to Emax, arrange the entries in ascending order, please. Answer by listing the labels in the order asked for.
III, II, I
(III: 13.2%, II: 72.4%, I: 114%)

---

target desc: hPPARδ (Homo sapiens)
Construct: corresponding to the DEF domains (structural elements of the promoter of the PPARs: D=hinge, EF=ligand fixation domain and AF2 fixation site)
experiment description: Gal4-hPPARδ chimera transactivation (luciferase) in COS-7 cells
condition description: COS-7 cells, Gal4-hPPARδ, luciferase, 24 hours; read-out: PPARδ EC50
pEC50: −log10 of the molar value.
observable: pEC50

COc1nc(-c2ccccc2)ccc1COc1ccc(OCC(=O)O)cc1 [Cpd 2]; 5.70
COc1nc(-c2ccccc2)ccc1CNc1ccc(OC(C)(C)C(=O)O)cc1 [Cpd 12]; 5.63

P = CCCCCCOc1nc(-c2ccccc2)ccc1COc1ccc(OCC(=O)O)cc1 [Cpd 15]
Q = CCSc1nc(-c2ccccc2)ccc1CNc1ccc(CCC(=O)O)cc1 [Cpd 38]
R = CC(C)Oc1nc(-c2ccccc2)ccc1CNc1ccc(CCC(=O)O)cc1 [Cpd 54]
Give the ascending ranking of the items by reported pEC50. Present the labels in the sequence the task asks for.
Q, R, P

---

target desc: hPPARα (Homo sapiens, UniProt Q07869)
Construct: corresponding to the DEF domains (structural elements of the promoter of the PPARs: D=hinge, EF=ligand fixation domain and AF2 fixation site); expressed in transfected cells; host or cells: COS-7 (monkey kidney fibroblasts)
Sequence (Q07869 239-466 limits assumed): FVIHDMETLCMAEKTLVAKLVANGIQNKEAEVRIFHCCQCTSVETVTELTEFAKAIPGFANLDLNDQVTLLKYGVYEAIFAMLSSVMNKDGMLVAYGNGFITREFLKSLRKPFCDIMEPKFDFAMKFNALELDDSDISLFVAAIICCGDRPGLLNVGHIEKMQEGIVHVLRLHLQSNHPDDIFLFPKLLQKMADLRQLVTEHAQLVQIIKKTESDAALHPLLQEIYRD
experiment description: Gal4-hPPARα chimera transactivation (luciferase) in COS-7 cells
Type: cell-based
condition description: relative to maximum activation obtained with fenofibric acid; COS-7 cells, Gal4-hPPARα, 24 hours; read-out: PPARα TOP % (maximum activation)
observable: Emax (%)

COc1nc(-c2ccccc2)ccc1CSc1ccc(CCC(=O)O)cc1 [Cpd 37]; 65.5
COc1nc(-c2ccccc2)ccc1CNc1ccc(OCC(=O)O)cc1 [Cpd 4]; 66.7
COc1nc(-c2ccccc2)ccc1CNc1ccc(OC(C)(C)C(=O)O)cc1 [Cpd 12]; 78.1
O=C(O)COc1ccc(OCc2ccc(-c3ccccc3)nc2Sc2ccccc2)cc1 [Cpd 25]; 53.9
CC(C)(C)Oc1nc(-c2ccccc2)ccc1CNc1ccc(OC(C)(C)C(=O)O)cc1 [Cpd 9]; 33.7
COc1nc(-c2ccccc2)ccc1CN(C)c1ccc(CCC(=O)O)cc1 [Cpd 33]; 49.9

I = CC(C)(C)Oc1nc(-c2ccccc2)ccc1COc1ccc(OC(C)(C)C(=O)O)cc1 [Cpd 6]
II = COc1cc(CCC(=O)O)ccc1NCc1ccc(-c2ccccc2)nc1OC [Cpd 44]
Min Emax? I | II Give the label of your selection.
I

---

target desc: hPPARα (Homo sapiens)
Construct: corresponding to the DEF domains (structural elements of the promoter of the PPARs: D=hinge, EF=ligand fixation domain and AF2 fixation site)
Sequence (Q07869 239-466 limits assumed): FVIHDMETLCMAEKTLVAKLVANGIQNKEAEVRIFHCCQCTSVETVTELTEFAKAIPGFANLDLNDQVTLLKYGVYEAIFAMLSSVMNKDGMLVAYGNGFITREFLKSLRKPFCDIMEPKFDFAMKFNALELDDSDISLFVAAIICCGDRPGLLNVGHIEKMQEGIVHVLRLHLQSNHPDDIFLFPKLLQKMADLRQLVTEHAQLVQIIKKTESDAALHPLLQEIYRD
experiment description: Gal4-hPPARα chimera transactivation (luciferase) in COS-7 cells
condition description: COS-7 cells, Gal4-hPPARα, luciferase, 24 hours; read-out: PPARα EC50
pEC50: −log10 of the molar value.
observable: pEC50

a = COc1nc(-c2ccc(C(F)(F)F)cc2)ccc1CNc1ccc(CCC(=O)O)cc1 [Cpd 36]
b = O=C(O)COc1ccc(OCc2ccc(-c3ccccc3)nc2OC2CCCCC2)cc1 [Cpd 18]
c = COc1nc(-c2ccccc2)ccc1CNc1ccc(C(C)CC(=O)O)cc1 (stereo not shown) [Cpd 45]
d = COc1nc(-c2ccccc2)ccc1CNc1cccc(OCC(=O)O)c1 [Cpd 14]
Arrange items by their pEC50 values in increasing order. Write out the labels following the order that was asked for.
d, b, c, a
(d: 4.48, b: 4.97, c: 5.19, a: 6.52)

I = CC#CC(CC(=O)O)c1ccc(OCc2cc(-c3ccccc3)cnc2OC)cc1 (stereo not shown) [Cpd 52]
II = COc1cc(NCc2ccc(-c3ccccc3)nc2OC)ccc1CCC(=O)O [Cpd 43]
Hi there! Just curious which has the higher pEC50 between I and II . To answer, give the label that identifies your chosen option.
II
(II: 5.84, I: 4.86)

P = COc1ncc(-c2ccccc2)cc1CNc1ccc(SCC(=O)O)cc1 [Cpd 26]
Q = COc1nc(-c2cccc(C(F)(F)F)c2)ccc1CNc1ccc(CCC(=O)O)cc1 [Cpd 40]
Short answer wanted: higher pEC50, P or Q ? Output the label that corresponds to your choice.
Q
(Q: 6.78, P: 4.68)

1 = COc1nc(-c2ccccc2)ccc1COc1ccc(OCC(=O)O)cc1 [Cpd 2]
2 = COc1nc(-c2ccccc2)ccc1COc1ccc(OC(C)C(=O)O)cc1 (stereo not shown) [Cpd 3]
Which one would you say has the larger pEC50 value: 1 , or 2 ? Give the label under which the chosen entry appears.
1

---

target desc: hPPARα (Homo sapiens)
Construct: corresponding to the DEF domains (structural elements of the promoter of the PPARs: D=hinge, EF=ligand fixation domain and AF2 fixation site)
experiment description: Gal4-hPPARα chimera transactivation (luciferase) in COS-7 cells
condition description: COS-7 cells, Gal4-hPPARα, luciferase, 24 hours; read-out: PPARα EC50
observable: EC50 (µM)

COc1ncc(-c2ccc(Cl)cc2)cc1CNc1ccc(CCC(=O)O)cc1; 3.62
CCCCCCOc1nc(-c2ccccc2)ccc1COc1ccc(OC(C)(C)C(=O)O)cc1; 0.009
O=C(O)COc1ccc(OCc2ccc(-c3ccccc3)nc2Sc2ccccc2)cc1; 6.96
COc1nc(-c2ccccc2)ccc1CNc1ccc(OC(C)C(=O)O)cc1 (stereo not drawn); 0.389
COc1nc(-c2ccccc2)c(-c2ccccc2)cc1CNc1ccc(SCC(=O)O)cc1; 1.74

1 = CC#CC(CC(=O)O)c1ccc(OCc2ccc(-c3ccccc3)nc2OC)cc1 (stereo not drawn)
2 = COc1nc(-c2ccccc2)ccc1CNc1cc(C)c(OCC(=O)O)c(C)c1
// which entry has the larger EC50 value, 1 or 2 ? Answer = label.
1

1 = COc1nc(-c2ccccc2)ccc1CSc1ccc(CCC(=O)O)cc1
2 = COc1nc(OC)c(-c2ccccc2)cc1CNc1ccc(CCC(=O)O)cc1
Identify the entry with the larger EC50. Options: 1 and 2 Give the label under which the chosen entry appears.
2

---

target desc: hPPARα (Homo sapiens, UniProt Q07869)
Construct: corresponding to the DEF domains (structural elements of the promoter of the PPARs: D=hinge, EF=ligand fixation domain and AF2 fixation site); expressed in transfected cells; host or cells: COS-7 (monkey kidney fibroblasts)
experiment description: Gal4-hPPARα chimera transactivation (luciferase) in COS-7 cells
Format: cell-based
condition description: relative to maximum activation obtained with fenofibric acid; COS-7 cells, Gal4-hPPARα, 24 hours; read-out: PPARα TOP % (maximum activation)
observable: Emax (%)

The examples below pair each entry with its known result.
COc1cc(NCc2ccc(-c3ccccc3)nc2OC)ccc1CCC(=O)O; 44.9
CCSc1nc(-c2ccccc2)ccc1CNc1ccc(CCC(=O)O)cc1; 36.2
CCCCCCOc1nc(-c2ccccc2)ccc1COc1ccc(OCC(=O)O)cc1; 78.2

P = COc1nc(-c2ccccc2)c(Br)cc1CNc1ccc(SCC(=O)O)cc1
Q = O=C(O)COc1ccc(OCc2ccc(-c3ccccc3)nc2OC2CCCCC2)cc1
So which one has the bigger Emax here, P or Q ? Identify your pick by its label.
P
(P: 59.3%, Q: 35.3%)
